# TARGET_OF_ASSAY: T1, Mcl-1, Q07820
# T1 chain: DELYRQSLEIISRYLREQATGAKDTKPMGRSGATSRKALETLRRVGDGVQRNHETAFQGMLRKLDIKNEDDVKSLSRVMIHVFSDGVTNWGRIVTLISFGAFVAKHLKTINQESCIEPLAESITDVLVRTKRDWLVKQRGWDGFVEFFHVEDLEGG
# ASSAY_TEXT: peptide SPOT array, c-Myc-tagged receptor at 1 uM or 100 nM, anti-c-Myc-Cy3
Please map values of SPOT signal as a fraction of Bim BH3's signal on the same receptor and array to classes as shown: low end = under 0.02, middle = from 0.02 up to 0.07, high end = 0.07 and over

CDLLGAKGKDILYILDHIFGDILKSK [NT5C2]	middle
CGEWTRRSLHLRVLLRQLILPTDKGV [FAM149A]	high end
PAKKMTLSEIYRWICDNFPYYKNAGI [FOXJ2]	high end
KGAKSESAESLRQWAQELEENLNELT [APOL4]	low end
FEKLRMIAKEIRHVGRMASVNMDPAL [RAPGEF2]	high end

Q: Quick check: band for SRQPRDFGDSLARGLKGFLRGVVGGV [VPS13C]
Ans: high end

Q: Quick check: band for VPKIASVVGILGHLASRHGDSIRREL [INTS5]
Ans: middle

Q: Quick check: band for MKLRNLFTKFIRKFGFELVKRLLPEE [RRP12]
Ans: high end

Q: Quick check: band for HHSSQEMSSEYREYLDSFGKCPGGRN [PCYT2]
Ans: middle

Q: Quick check: band for FSVDLNASRSLSQVAMDLHEAVSMKL [DCST2]
Ans: middle

Q: Quick check: band for QCPIFRLGDIFRETGDNFSDVAIQGG [P2RX7]
Ans: middle

Q: Quick check: band for EAVTDGLKRALRSFGNALGNCILDKD [RAD52]
Ans: high end

Q: Quick check: band for TRELQELARKDQELADASENLLTENT [TXNDC11]
Ans: low end

Q: Quick check: band for YIVLGLRKTTLQKVLKEVAELVGRVG [NLRX1]
Ans: high end

Q: Quick check: band for LSPGRSVTAGIIIVGDEILKGHTQDT [FLAD1]
Ans: low end

Q: Quick check: band for IQQDLGCGASLGVILDNLLVTGGQGC [SCAP]
Ans: low end

Q: Quick check: band for PSLSKELTSSDAGVGDVSFDSDSQFP [CRTC1]
Ans: low end

Q: Quick check: band for KLPVVGIGKHDCGMATDLALRCLVET [CCDC76]
Ans: low end
